The measurements presented in this section are drawn from the supplement of paper PMC11061612.

Field: Bliss excess. Provide a value for each of the compounds that follow.
- Tested on: AU565 (Breast Carcinoma);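 also: after 72 h of two-drug dosing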
- Assay protocol: Bliss excess, mean over the matrix (fraction); higher = more synergy

[[record]]
compound = "NC1(C(=O)N[C@@H](CCO)c2ccc(Cl)cc2)CCN(c2ncnc3[nH]ccc23)CC1 [Capivasertib] + C[C@@H]1COCCN1C2=NC(=NC(=C2)C3(CC3)[S@](=N)(=O)C)C4=C5C=CNC5=NC=C4 [AZD6738] (first compound max 10 µM, 7x7, partner max 10 µM)"
result = -0.0126

[[record]]
compound = "CCN(CCO)CCCOc1ccc2c(Nc3cc(CC(=O)Nc4cccc(F)c4)[nH]n3)ncnc2c1 [AZD2811] + O=C(c1cc(Cc2n[nH]c(=O)c3ccccc23)ccc1F)N1CCN(C(=O)C2CC2)CC1 [Olaparib] (first compound max 1 µM, 7x7, partner max 10 µM)"
result = -0.011


Go through the list and state Bliss excess for each entry.
1. Cc1c2c(nn1C)CSCc1cc(n(C)n1)CSc1cc(c3ccccc3c1)OCCCc1c(C(=O)O)n(C)c3c-2c(Cl)ccc13 [AZD5991] + C[C@@H](Nc1cc(F)cc(F)c1)c1cc(C(=O)N(C)C)cc2c(=O)cc(N3CCOCC3)oc12 [AZD8186] (first compound max 1 µM, 7x7, partner max 3 µM)
2. CN(C)CCCOc1ccc(-c2ccc3ncc4c(c3c2)n(C2CCOCC2)c(=O)n4C)cn1 [AZD0156] + C[C@@H]1COCCN1C2=NC(=NC(=C2)C3(CC3)[S@](=N)(=O)C)C4=C5C=CNC5=NC=C4 [AZD6738] (first compound max 1 µM, 7x7, partner max 10 µM)

0.0418
0.0094
